Test system: SN12C
protocolText: NCI tumour cell line growth inhibition, 48 h
Activity calls are given as the source filed them. No stated cut-off is given here; in the data, active = GI50 up to about 1.1 µM and inactive = higher.
Possible outcomes: active, inactive

molecule=CC(=O)Nc1ccc2nc(-c3ccccn3)c(-c3ccccn3)nc2c1 assignedclass=inactive
molecule=CC1=C2NCN(C)N=C2C(C#N)(C#N)C1(C#N)C#N assignedclass=inactive
molecule=C=CCCCCCCC#CCCCCCCCCCC[C@@H]1C(=O)O[C@H](C)[C@@H]1O.CCCCCCCCC#CCCCCCCCCCC[C@@H]1C(=O)O[C@H](C)[C@@H]1O assignedclass=inactive
molecule=CN(C)Cc1cc(O)c(O)c(CN(C)C)c1 assignedclass=inactive
molecule=CSc1cc(Cl)c(C(=O)Nc2ccccc2)cc1S(=O)(=O)n1ccnc1O assignedclass=inactive
molecule="C[C@@H]1C[C@@H](O)[C@]2(O)O[C@@H]3C[C@@]4(C=O)[C@@H](CC[C@@H]5[C@@H]4CC[C@]4(C)[C@@H](C6=CC(=O)OC6)CC[C@]54O)C[C@H]3O[C@@H]2O1 [CALACTIN]" assignedclass=active
molecule="CCC1C(=O)C(O)[C@H]2[C@@H]3C(O)CC4=CC(=O)CC[C@]4(C)[C@H]3CC[C@]12C (stereo partly drawn)" assignedclass=inactive
molecule=N#CI1OC(=O)c2ccccc21 assignedclass=inactive

* * *

System: NCI-H226
protocolText: NCI tumour cell line growth inhibition, 48 h
Where a name gives a salt, the structure may show the parent alone. Activity calls are given as the source filed them. Cut-off read from the data, not from the text of the source: active = GI50 up to about 1.1 µM and inactive = higher.
Outcome codes: 1.0 (active), 0.0 (inactive)

compound=Cc1cc(N)ccc1C=O assignedclass=0.0
compound="Cc1ccc(NC(=O)CC2C(=O)Nc3ccccc3S2(=O)=O)c(C)c1 (stereo unspecified)" assignedclass=0.0
compound="COC1(OC)N=C(N)C2(C#N)C(c3ccccc3)NC3=C(CCC3)C12C#N (stereo unspecified)" assignedclass=0.0
compound=CC1=C2NCN(C)N=C2C(C#N)(C#N)C1(C#N)C#N assignedclass=0.0
compound="CC1=CC=NN2C(=O)[C@H](C)C2C1 (stereo partly specified)" assignedclass=0.0
compound=CCCCOC(=O)CNC(=O)OCCCCC#CC#CCCCCOC(=O)NCC(=O)OCCCC assignedclass=0.0
compound=COc1cc(C(SCc2ccccc2)SCc2ccccc2)ccc1O assignedclass=0.0
compound=Cc1ccccc1CN1CC=c2ccccc2=N1 assignedclass=0.0
compound="NCCCNCCCCNCCCN [SPERMINE TETRAHYDROCHLORIDE]" assignedclass=0.0
compound="CCOC(=O)C(C)c1nc2cc(F)c(N3CCOCC3)cc2[nH]c1=O (stereo unspecified)" assignedclass=0.0
compound=NS(=O)(=O)c1ccc(Nc2c3ccccc3nc3c(C(=O)NCCO)cccc23)cc1 assignedclass=1.0

* * *

Test system: NCI-H226
protocolText: NCI tumour cell line growth inhibition, 48 h
Calls of active or inactive are those of the source. Rule as the data show it: active = GI50 up to about 1.1 µM and inactive = higher.
valueType: GI50

compound=Cc1cc(C)nc(NS(=O)(=O)c2ccc(Nc3c4ccccc4nc4c(C(=O)Nc5ccc(S(=O)(=O)N=C(N)N)cc5)ccc(Cl)c34)cc2)n1 experimentaltarget=NCI-H226 valuetype=GI50 valuemeasured="21.9 µM (inactive)"
compound="CC1=C(C(=O)OCCc2ccc([N+](=O)[O-])cc2)C(c2ccccc2C(F)(F)F)C(C(=O)OC(C)C)=C(C)N1 (stereo not given)" experimentaltarget=NCI-H226 valuetype=GI50 valuemeasured="3.15 µM (inactive)"
compound=Cn1cc(NC(=O)c2cc(NC(=O)CCCCCCCCCC(=O)Nc3cc(C(=O)Nc4cc(C(=O)NCCC(=N)N)n(C)c4)n(C)c3)cn2C)cc1C(=O)NCCC(=N)N experimentaltarget=NCI-H226 valuetype=GI50 valuemeasured="> 100 µM (inactive)"
compound=N#CCC(=O)c1cc(OCc2cc(OCc3ccc(Br)cc3)cc(OCc3ccc(Br)cc3)c2)cc(OCc2cc(OCc3ccc(Br)cc3)cc(OCc3ccc(Br)cc3)c2)c1 experimentaltarget=NCI-H226 valuetype=GI50 valuemeasured="> 100 µM (inactive)"
compound=CN1C(=O)NC(=O)/C(=C\Nc2ncccn2)C1=O experimentaltarget=NCI-H226 valuetype=GI50 valuemeasured="> 100 µM (inactive)"
compound="C[N+]1(C)CCCC1C(=O)[O-] (stereo not given)" experimentaltarget=NCI-H226 valuetype=GI50 valuemeasured="> 100 µM (inactive)"
compound=COc1ccc(N2CCOCC2)cc1 experimentaltarget=NCI-H226 valuetype=GI50 valuemeasured="> 100 µM (inactive)"
compound=O=C(N/N=C/c1ccc(Cl)cc1)c1cc(I)cc(I)c1O experimentaltarget=NCI-H226 valuetype=GI50 valuemeasured="> 100 µM (inactive)"
compound=CCCCCCCCCCCC[C@@H](O)[C@H]1CC[C@H]([C@H]2CC[C@H]([C@H](O)CC[C@H](O)CCCCCCCC3=C[C@H](C)OC3=O)O2)O1 experimentaltarget=NCI-H226 valuetype=GI50 valuemeasured="1.67 µM (inactive)"
compound=N#Cc1nc(Cc2ccccc2)oc1N experimentaltarget=NCI-H226 valuetype=GI50 valuemeasured="> 100 µM (inactive)"
compound=Nc1ccc2c(c1)C(=O)c1ccc(F)cc1-2 experimentaltarget=NCI-H226 valuetype=GI50 valuemeasured="> 100 µM (inactive)"
compound=CCCCCCCCCCCCCS(=O)(=O)O experimentaltarget=NCI-H226 valuetype=GI50 valuemeasured="> 100 µM (inactive)"
compound=Oc1cc(-c2ccccc2)nc2cc3c(cc12)OCO3 experimentaltarget=NCI-H226 valuetype=GI50 valuemeasured="11.8 µM (inactive)"
compound=N=C(N)N/N=C(/c1ccccc1)c1ccc(O)cc1O experimentaltarget=NCI-H226 valuetype=GI50 valuemeasured="29.9 µM (inactive)"
compound="COc1cc(COC(=O)N2CCCCC2C(=O)O)c([N+](=O)[O-])cc1OC (stereo not given)" experimentaltarget=NCI-H226 valuetype=GI50 valuemeasured="> 100 µM (inactive)"
compound=CC1=NN(c2nc(N)nc(COc3ccc(N)cc3)n2)C(C)(C)C1 experimentaltarget=NCI-H226 valuetype=GI50 valuemeasured="> 100 µM (inactive)"
compound="C[N+](C)(C)C(C1=CCCC1=O)c1ccccc1 (stereo not given)" experimentaltarget=NCI-H226 valuetype=GI50 valuemeasured="36.6 µM (inactive)"
compound="C/C=C/C1(C)/C(=N\\O)C(C)(CCC)C(=O)N1O (stereo not given)" experimentaltarget=NCI-H226 valuetype=GI50 valuemeasured="> 100 µM (inactive)"
compound="O=c1[nH]cc(F)c(=O)[nH]1 [FLUOROURACIL]" experimentaltarget=NCI-H226 valuetype=GI50 valuemeasured="250 µM (inactive)"
compound=Cc1cc2c(C(C)C)c(O)c(O)c(/C=N/c3cc(C(F)(F)F)ccc3Cl)c2c(O)c1-c1c(C)cc2c(C(C)C)c(O)c(O)c(/C=N/c3cc(C(F)(F)F)ccc3Cl)c2c1O experimentaltarget=NCI-H226 valuetype=GI50 valuemeasured="29 µM (inactive)"
compound=CCN(Cc1cc(Cl)cc(C)c1O)Cc1c(O)ccc2ccccc12 experimentaltarget=NCI-H226 valuetype=GI50 valuemeasured="19.1 µM (inactive)"
compound=O=[N+]([O-])/C(Cl)=C(/C(Cl)=C(Cl)Cl)N1CCOCC1 experimentaltarget=NCI-H226 valuetype=GI50 valuemeasured="16.4 µM (inactive)"
compound="CC(=O)N1CCC2(c3ccccc3N(C(C)=O)C2c2ccc(O)cc2)C1C(=O)O (stereo not given)" experimentaltarget=NCI-H226 valuetype=GI50 valuemeasured="> 100 µM (inactive)"
compound=CCOC(=O)Cc1nnc2c(-c3ccccc3)nc3ccccc3n12 experimentaltarget=NCI-H226 valuetype=GI50 valuemeasured="> 100 µM (inactive)"
compound=O=S(=O)(N/C(=N\O)Nc1ccc(Cl)cc1)c1ccc(S(=O)(=O)c2ccccc2)s1 experimentaltarget=NCI-H226 valuetype=GI50 valuemeasured="14.6 µM (inactive)"
compound="COc1nc(NC2OC(COC(C)=O)C(OC(C)=O)C(OC(C)=O)C2OC(C)=O)c(/N=C(\\C)C(C)=O)c(=O)n1C (stereo not given)" experimentaltarget=NCI-H226 valuetype=GI50 valuemeasured="> 100 µM (inactive)"
compound=Cc1nc(-c2ccc([N+](=O)[O-])cc2)cn2c1nc1ccccc12 experimentaltarget=NCI-H226 valuetype=GI50 valuemeasured="> 100 µM (inactive)"
compound=CN(C)Cc1cc(O)c(O)c(CN(C)C)c1 experimentaltarget=NCI-H226 valuetype=GI50 valuemeasured="43.3 µM (inactive)"
compound=COC(=O)[C@@H]1[C@H]2CC[C@]3(C)[C@@H](OC(C)=O)CC[C@H]3[C@@H]2CC[C@H]1C(C)=O experimentaltarget=NCI-H226 valuetype=GI50 valuemeasured="> 100 µM (inactive)"
compound=O=C(Nc1c(O)[nH]c(=S)[nH]c1=O)c1ccccn1 experimentaltarget=NCI-H226 valuetype=GI50 valuemeasured="> 100 µM (inactive)"
compound=C/N=C(\N)N/N=C(\C)c1ccc2oc3ccc(/C(C)=N/N/C(N)=N/C)cc3c2c1 experimentaltarget=NCI-H226 valuetype=GI50 valuemeasured="2.08 µM (inactive)"
compound="CCOC(=O)CSc1nnc(C(Sc2nc(-c3ccccc3)c(-c3ccccc3)[nH]2)C(C)C)n1-c1ccccc1 (stereo not given)" experimentaltarget=NCI-H226 valuetype=GI50 valuemeasured="17.1 µM (inactive)"
compound="N#CC1CC2(CCN1C(=O)c1ccccc1)OCCO2 (stereo not given)" experimentaltarget=NCI-H226 valuetype=GI50 valuemeasured="> 100 µM (inactive)"
compound=O=C1C=CC(=CC=C2C=CN(CCCCCCCCCCC(=O)NCCCCCCCCCCCC(=O)O)C=C2)C=C1 experimentaltarget=NCI-H226 valuetype=GI50 valuemeasured="> 100 µM (inactive)"
compound=CN(CCO)c1nc(N)cc(=O)[nH]1 experimentaltarget=NCI-H226 valuetype=GI50 valuemeasured="> 100 µM (inactive)"
compound="C=C1CCOC2(C(O)C(C)(O)CO)NC(=O)C1(O)NC2=O (stereo not given)" experimentaltarget=NCI-H226 valuetype=GI50 valuemeasured="> 100 µM (inactive)"
compound="OC1CCCCCCCCCCC1[S+]1CCCC1.O[B-](F)(F)F (stereo not given)" experimentaltarget=NCI-H226 valuetype=GI50 valuemeasured="50.9 µM (inactive)"
compound="COC(=O)c1cc(C)ccc1CC(Cc1ccc(C)cc1)C(=O)OC (stereo not given)" experimentaltarget=NCI-H226 valuetype=GI50 valuemeasured="> 47.4 µM (inactive)"
compound="O=c1[nH]c(=O)n(C2CC(O)C(CO)O2)cc1/C=C/Br (stereo not given)" experimentaltarget=NCI-H226 valuetype=GI50 valuemeasured="> 100 µM (inactive)"
compound=CCOC(=O)C#Cc1ccc([N+](=O)[O-])cc1 experimentaltarget=NCI-H226 valuetype=GI50 valuemeasured="2.68 µM (inactive)"
